B1: RTN1 (parent)
chain: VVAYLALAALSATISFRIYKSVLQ

# Variants of: B1
# assay_info: protein stability index of a GFP-peptide fusion (GPS, HEK-293T) (PSI 1-6); higher = more stable;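 also: lentivirally expressed fusions sorted by FACS into six bins by GFP to DsRed ratio, PSI derived from sequencing read proportions per bin multiplied by bin number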
# measurement_context: c terminus: a fixed tail appended
readout: protein stability index

> print(dat)
    variant  endpoint.result
 1     L10Q             2.41
 2      L7G             3.96
 3     R17H              2.7
 4      A9Y             3.25
 5      A8C             1.26
 6     S21M             2.42
 7     I14T             2.12
 8      A6R              3.2
 9     V22D             3.13
10      L5A             2.47
11      V2A             2.61
